test: RAM signaling pathway blockade in yeast – S. cerevisiae, Pdr1DBD-CYC8 efflux-inhibited sensitized strain, primary screen (AID 1298);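 further: 0% = DMSO untreated cells without growth and 100% = 10 µM 1-NA-PP1 full growth; higher means more yeast growth rescued from 5-FOA killing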; settings: S. cerevisiae cbk1-as DSE1-URA3 strain, 5-FOA growth OD615, 2 d; at 50 µM; stronger effect = higher value
observable: RAM network inhibition (%)

1) COc1cccc(C2CC(c3ccccc3OC)n3nc(N)nc3N2)c1 (configuration not stated)	1.98
2) CC(=O)c1cccc(NC(=O)c2cc3ccccn3n2)c1	-0.31
3) CCC(Oc1ccccc1)C(=O)Nc1cc(C)on1 (configuration not stated)	0.2
4) COCc1cc(C)nc2sc(C(=O)N3CCN(c4ccccc4)CC3)c(N)c12	3.05
5) Cn1c(C(=O)N2CCN(C3CCCCC3)CC2)cc2c(=O)n(C)c3ccccc3c21	0.21
6) O=C(Nc1ccc(Br)cc1F)C1CCN(c2nnc(-n3cccc3)s2)CC1	0.36
7) CCOC(=O)c1ccc(NC(=O)NS(=O)(=O)c2ccc(C)cc2)cc1	6.08
8) O=C(NCCCNC(=O)c1ccco1)c1ccco1	0.16
9) C=CCc1c(C)nc(SC)nc1Nc1ccc(C(C)=O)cc1	6.87
10) COc1cc(CO)cc(Br)c1OCC(=O)O	-1.46
11) Cc1cc2nc(-c3cccc(NC(=O)c4ccc(Br)o4)c3C)oc2cc1C	2.65
12) COc1ccc(C2SCC(C(=O)O)N2C(C)=O)cc1OC (configuration not stated)	7.78

====

experiment: growth suppression of beta-catenin knockout HCT116, pilot screen, human colon tumor cells (AID 823); conditions: CellTiter-Glo, 60 h, at 10 µM, stronger effect = lower value;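 further: 0% = wells killed by 20 µM Hyamine and 100% = untreated DMSO cell wells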
Records with an inconclusive call do not appear.
Here, each record is paired with measured viability data.
observable: viability (%)

1. CCCCCSc1nc2c(c(=O)[nH]c(=O)n2C)n1CC	88
2. CC1CCCCN1CCNC(=O)c1cc2c(=O)n(C)c3ccccc3c2n1C (stereo not drawn)	78.9
3. Cc1nc2ccccc2c(=O)n1NC(=O)c1c(O)c2ccccc2n(C)c1=O	100
4. O=C(O)CCCC(=O)N1CCc2cc(S(=O)(=O)N3CCc4ccccc43)ccc21	90.7
5. O=C(NCCc1ccc(Cl)cc1)c1cnc2n(c1=O)CCS2	95
6. O=C(c1ccccc1F)N1CCN(S(=O)(=O)c2ccc3c(c2)OCCO3)CC1	90.5
7. O=S(=O)(NCCN1CCCC1)c1cccc2cccnc12	99.8
8. COc1ccc(S(=O)(=O)Cc2ccc(C(=O)NCc3cccs3)o2)cc1	94.7
9. C=CCn1c(=N)n(CC(O)COc2ccc(OC)cc2)c2ccccc21 (stereo not drawn)	64.8
10. Cn1cccc1Cc1nnc(SCC(=O)NC2CCCC2)n1-c1ccc(F)cc1	104
11. CCOC(=O)N1CCN(C(=O)Cn2c(=O)sc3ccccc32)CC1	100
12. Cc1cc(C)n(-c2nncc(-c3ccccc3)n2)n1	98.9
13. N#CCCn1c(C(C#N)(CCC#N)CCC#N)nc2ccccc21	96.5
14. C#CCn1c(=NC(=O)CN2C(=O)CCC2=O)sc2cccc(C)c21	93.3
15. CC(=O)Oc1cccc(N2C(=O)C3CC=C(Cl)CC3C2=O)c1 (stereo not drawn)	89.6
16. Clc1ccc(Cc2nnc(-c3ccccc3Br)o2)cc1	101
17. CC(CCc1ccccc1)NC(=O)CN1CCOc2ccccc21 (stereo not drawn)	84.1
18. C=CCOC(=O)C1=C(C)NC(=O)NC1c1ccc(OC(=O)c2ccco2)c(OC)c1 (stereo not drawn)	93.6
19. O=C(CCN1CCN(CCO)CC1)Nc1ccc(F)c(F)c1	104
20. CCOC(=O)N1CCC(N2C(=O)c3ccccc3C2=O)CC1	102
21. COc1ccc(-n2c(Cc3cc(=O)[nH]c(=O)[nH]3)nnc2SCC(=O)NC2CCCC2)cc1	104
22. CCOC1OC2C(CO)OC(n3cnc4c(N)ncnc43)C2O1 (stereo not drawn)	95.1
23. O=C(Cc1cccs1)N1CCN(c2ccccn2)CC1	93.5

FYI, the data here is from PubChem BioAssay.
